Values from the supplement of paper PMC9732359

# assay.details: protein stability index of a GFP-peptide fusion (yeast GPS) (PSI 1-4); higher = more stable; sorted into four equal gates, so the index is relative within each strain
# particulars: ubr1∆
readout.kind: protein stability index

INSERT INTO measurements (polymer_sequence, readout_kind, endpoint_value) VALUES
  ('KVVNGNSADAAYAQVEI [FAS2]', 'protein stability index', 2.42),
  ('IEGMEQRIIKELSIRFP [ARP7]', 'protein stability index', 2.26),
  ('YIQRRLVKALEDIMVHY [RPO21]', 'protein stability index', 2.05),
  ('PNIMLIFGSGFGSADDT [FAS1]', 'protein stability index', 2.24),
  ('ENVEKKEAALKTMIKTI [SMC2]', 'protein stability index', 2.14),
  ('TNKSKRPSITEAMMLKE [MED1]', 'protein stability index', 3.03),
  ('NDNYSSDMENDNLLLNL [REC8]', 'protein stability index', 3.09),
  ('MSGILHCEDKDYKTAFS [RPN6]', 'protein stability index', 3.16),
  ('AELVQKYIGEGSRMVRE [RPT6]', 'protein stability index', 2.33),
  ('LLNVSVNITKFSKFERS [SKI6]', 'protein stability index', 2.44),
  ('EDKQNIEINEDNSQDDQ [RRI2]', 'protein stability index', 3.23),
  ('PERFMVFQLPTRLPAFE [RPC53]', 'protein stability index', 2.79),
  ('IRDSIPQMDSFDKDLER [DIS3]', 'protein stability index', 3.01),
  ('NPSQGVSNSGAQDEEIH [UBP6]', 'protein stability index', 2.11),
  ('KVAQLRQTGPAKINEVY [NSL1]', 'protein stability index', 3.58),
  ('YVDEQSKNELKKAFTSY [RPS16A]', 'protein stability index', 3.13),
  ('FITKHLPLLILENSSRS [NUT1]', 'protein stability index', 1.14),
  ('ELGVSIYDFPGTPEATK [NUT2]', 'protein stability index', 3.04),
  ('DEDEDEDEDDDDDDDED [QCR6]', 'protein stability index', 1.98),
  ('FDNKSTSEEQEALLRSL [SNF2]', 'protein stability index', 2.73),
  ('KAPNAVVITFEKEDHTL [RPB11]', 'protein stability index', 1.97),
  ('NNTNTGASGVDDFQNFF [SWI1]', 'protein stability index', 3.31),
  ('RNSVKLLSKLLLKHPFK [YCS4]', 'protein stability index', 2.07),
  ('MANIPERIINVGVIGPL [SNU114]', 'protein stability index', 3.07),
  ('QVNQLQRILEVLGTPDQ [SSN3]', 'protein stability index', 1.51),
  ('KVTEKVLTQLTALALKY [CSI1]', 'protein stability index', 2.13),
  ('VDDAIELALKTLSKTTD [PRE9]', 'protein stability index', 2.64),
  ('NFLVFQGDVEQIAAQSP [SMC1]', 'protein stability index', 2.61),
  ('NIEERKEKIQHELGINI [BRR2]', 'protein stability index', 3.22),
  ('EIQPRANIQLDFPELKP [FAS2]', 'protein stability index', 3.26),
  ('GPKLRASDLKINELFKK [RPN8]', 'protein stability index', 1.08);

* * *

# assay.details: protein stability index of a GFP-peptide fusion (yeast GPS) (PSI 1-4); higher = more stable; sorted into four equal gates, so the index is relative within each strain
# particulars: san1∆
Listed here: items and their measured protein stability index.
readout.kind: protein stability index

INSERT INTO results (polymer_sequence, readout_kind, endpoint_value) VALUES
  ('YLEENKSDSQYRFYEYI [MED1]', 'protein stability index', 3.12),
  ('DLETSLSQSSSYLETLT [MED2]', 'protein stability index', 2.7),
  ('HRLLQRALFRQLKRWYW [RMP1]', 'protein stability index', 1.22),
  ('VVLRLYLKDNITLLTRQ [GRR1]', 'protein stability index', 1.34),
  ('LKYPELSIKNSFIINFI [NUT1]', 'protein stability index', 2.13),
  ('IALNLDTTVNDCLDKLL [SNF2]', 'protein stability index', 2.65),
  ('KKNIDYQNRSTRSQFCL [RRI1]', 'protein stability index', 2.88),
  ('SAAGMTAAIDSVVSQIE [FAS1]', 'protein stability index', 3.04);

* * *

# assay.details: protein stability index of a GFP-peptide fusion (yeast GPS) (PSI 1-4); higher = more stable; sorted into four equal gates, so the index is relative within each strain
# particulars: doa10∆
readout.kind: protein stability index

INSERT INTO results (polymer_sequence, readout_kind, endpoint_value) VALUES
  ('IKKKKKKSKNGTISKTG [SRP14]', 'protein stability index', 3.16),
  ('TDIKQFLELTRRADVKT [RPL38]', 'protein stability index', 2.95),
  ('NVDNQTSDLVKSLGLKL [RPS17A]', 'protein stability index', 3.2),
  ('LISDSNINNSSVAEKEE [SWI3]', 'protein stability index', 1.6),
  ('EAELSSTKVENSAIIQN [YIL149C/MLP2]', 'protein stability index', 2.77),
  ('YILEAEAAAKEKDELDN [QCR7]', 'protein stability index', 3.1),
  ('DDDEVDYSEIQRSRRKF [DSN1]', 'protein stability index', 2.66),
  ('LLLKKIIKDYVLDIVPG [SRB4]', 'protein stability index', 2.74),
  ('EAGASAELDDCRGVSEN [RPO21]', 'protein stability index', 3.47),
  ('LLSKIMLNLIDDVKNIL [RPN6]', 'protein stability index', 2.2),
  ('YPLPKFPTTSHESLVTT [MED8]', 'protein stability index', 1.81),
  ('PKPDKPSGRTRGRSVMK [ESC2]', 'protein stability index', 3.14),
  ('SISTYKDILNLASEVGD [ECM29]', 'protein stability index', 2.63),
  ('IGQIIFSVRTKDSNKDV [RPL10]', 'protein stability index', 2.18);

* * *

# assay.details: protein stability index of a GFP-peptide fusion (yeast GPS) (PSI 1-4); higher = more stable; sorted into four equal gates, so the index is relative within each strain
# particulars: ubr1∆
readout.kind: protein stability index

INSERT INTO results (polymer_sequence, endpoint_value) VALUES
  ('THIAESAKEIAKASGCD [MCD1]', 3.34),
  ('SFQKIPLSRINENENFG [YML103C/NUP188]', 3.24),
  ('SVLNPFLLRRVKADVEK [ISW2]', 1.31),
  ('GSTLNVSQMVAVVGQQI [RPO31]', 2.82),
  ('TPAPKISYKKGAASNRT [RPL36A]', 3.1),
  ('LTVDNLSIAIVGKDTPF [PRE5]', 3),
  ('AFFREKGLVSQQLDSFN [RPB2]', 2.97),
  ('KNVRFRVLQLLAVIMDN [YCG1]', 1.51),
  ('NVMTPREQYETQVALNE [UBP6]', 3.05),
  ('LVNIRTQTSKEQEIENN [ITC1]', 3.06),
  ('DSPFSLICQNNLNAFVD [SRP72]', 2.92),
  ('MYCRPAPSDFSENQRQI [GRR1]', 2.66),
  ('EFSEHTFVERLPNETIN [DIS3]', 3.23),
  ('ASKSGKLTQKLVTAGVA [CYT1]', 1.95),
  ('LICQNNLNAFVDFSKYN [SRP72]', 2.54),
  ('FQSVQLNINNPNFLIMQ [SMC2]', 2.1),
  ('ITYDKQEPSASQVKDSV [SRP68]', 2.99),
  ('WASKYGQEYPRIIGLSA [BRR2]', 1.93),
  ('LPHITQLEGFESRKAFF [RPB2]', 3.12),
  ('VENDTFIERNFTPQEIE [FAS2]', 3.18),
  ('AFVKQKNDSLEKTINDL [YIL149C/MLP2]', 3.11),
  ('SVPLVIGQFLEPIDQNT [RPT3]', 2.71),
  ('ADNGEEYLTLNDFNDLN [MED2]', 3.27),
  ('MLLANISVARKIYDAFP [DIS3]', 1.73),
  ('INHTILGKLQDVFNLLP [RPN8]', 2.96),
  ('MKRNCGQIITLFSSRRL [RMP1]', 2.29),
  ('TPDATKIKAILESVGIE [RPP2A]', 3.18),
  ('TEQIKMRILSNDITNLQ [SRB8]', 2.16),
  ('NYELEKIADNISKDENE [YDL116W/NUP84]', 3.14),
  ('KPKMLPIPSKPTLFDLA [SRP68]', 2.53);
